# DPPH inhibition (%) listing for each entry below
Experiment: DPPH inhibition by synthesized peptides identified in the hydrolysate
Type: biochemical
Details: synthesized peptide; test concentration not given
Ends that are not written are not given here.
MEASURE: DPPH inhibition (%)

[[record]]
input_sequence = "VAEQEQEQAKRQ [SEQ ID No. 1]"
value = 78.7

[[record]]
input_sequence = "LPQQEQGHDR [SEQ ID No. 2]"
value = 77.5

[[record]]
input_sequence = "VDAQPEEQQR [SEQ ID No. 3]"
value = 100

[[record]]
input_sequence = "EYTGDAAGR [SEQ ID No. 5]"
value = 83.9

[[record]]
input_sequence = "GINAENNQRN [SEQ ID No. 4]"
value = 96.3

